Values from PubChem BioAssay (NCATS)

System: OV90
Experiment: Primary qHTS to identify gynecologic anti-cancer compounds using libraries of approved drugs and bioactive compounds (AID 1345084); note: nearly all actives have a fitted effect of over 55% in size
Conditions: Gynecologic cancer cell panel viability, ATPlite luminescence, 48 h; series mostly up to 57.5 µM
Results filed as inconclusive are left out. Active and inactive are the calls of the source. Calls come from the whole dose curve; as a rule, active = well fitted cell-killing curve with a large enough effect; inconclusive = small, poorly fitted or top-dose-only effect, or effect the other way; inactive = flat fitted curve, though single readings scatter.
Answer with one of the outcomes given here: active, inactive

Q. What did this assay record as the result for CCCCCCCCCCCCCCCCOP(=O)([O-])OCC[N+](C)(C)C ?
A. active

Q. What did this assay record as the result for CCCCCCc1ccc(O)cc1O ?
A. inactive

Q. What did this assay record as the result for OC[C@H]1O[C@H](O[C@]2(CCl)O[C@H](CCl)[C@@H](O)[C@@H]2O)[C@H](O)[C@@H](O)[C@H]1Cl ?
A. inactive

Q. What did this assay record as the result for CCOC(=O)/C=C(C)/C=C/C=C(C)/C=C/c1c(C)cc(OC)c(C)c1C ?
A. inactive

Q. What did this assay record as the result for C[C@@H]1CN(CCCn2c3ccccc3c3ccccc32)C[C@H](C)N1 ?
A. active

Q. What did this assay record as the result for O=S1(=O)c2cccc3cccc(c23)N1CCCN1CCN(c2ccc(F)cc2)CC1 ?
A. inactive

====

Tested on: Tov112D
Experiment: Primary qHTS to identify gynecologic anti-cancer compounds using libraries of approved drugs and bioactive compounds (AID 1345084); note: nearly all actives have a fitted effect of over 55% in size
Settings: Gynecologic cancer cell panel viability, ATPlite luminescence, 48 h; series mostly up to 57.5 µM
Results filed as inconclusive are left out. Activity calls are given as the source filed them. Calls come from the whole dose curve; as a rule, active = well fitted cell-killing curve with a large enough effect; inconclusive = small, poorly fitted or top-dose-only effect, or effect the other way; inactive = flat fitted curve, though single readings scatter.
Answer with one of the outcomes given here: active, inactive

Q. What did this assay record as the result for CN(C)CCCOc1nn(Cc2ccccc2)c2ccccc12 ?
A. inactive

Q. What did this assay record as the result for C[C@]12C=CC(=O)C=C1[C@@H](F)C[C@@H]1[C@@H]2[C@@H](O)C[C@@]2(C)[C@H]1CC[C@]2(O)C(=O)CO ?
A. inactive

Q. What did this assay record as the result for CCOC(=O)OC(C)OC1=C(C(=O)Nc2ccccn2)N(C)S(=O)(=O)c2ccccc21 (centres undefined) ?
A. inactive

Q. What did this assay record as the result for COc1cccc2c1C(=O)c1c(O)c3c(c(O)c1C2=O)C[C@@](O)(C(C)=O)C[C@@H]3O[C@H]1C[C@H](N)[C@H](O)[C@H](C)O1 ?
A. active

Q. What did this assay record as the result for O=c1[nH]c(=O)n([C@H]2CCCO2)cc1F ?
A. inactive

Q. What did this assay record as the result for COc1cccc(OC)c1C(=O)N[C@@H]1C(=O)N2[C@@H]1SC(C)(C)[C@@H]2C(=O)O ?
A. inactive

Q. What did this assay record as the result for CC(C)NC[C@@H](O)COc1cccc2ccccc12 ?
A. inactive

Q. What did this assay record as the result for Cc1cc(N)c2cc(NC(=O)Nc3ccc4nc(C)cc(N)c4c3)ccc2n1 ?
A. inactive

Q. What did this assay record as the result for CC1=C(C(=O)OC(C)C)C(c2cccc([N+](=O)[O-])c2)C(C(=O)OC2CN(C(c3ccccc3)c3ccccc3)C2)=C(N)N1 (centres undefined) ?
A. inactive

====

Test: P-glycoprotein substrates identified in KB-8-5-11 adenocarcinoma cell line, qHTS therapeutic library screen (AID 1346987); note: nearly all actives have a fitted effect of over 65% in size
Details: KB-8-5-11 (P-gp overexpressing) viability, CellTiter-Glo, 72 h; series mostly up to 44.5 µM
Inconclusive results are not listed. Activity calls are given as the source filed them. Calls come from the whole dose curve; as a rule, active = well fitted inhibition curve with a large enough effect; inconclusive = small, poorly fitted or top-dose-only effect; inactive = flat fitted curve, though single readings scatter.
Property Label: outcome

[[record]]
compound = "CCC(NC(C)C)C(O)c1ccc(O)c(O)c1 (stereo not drawn)"
endpoint_result = "inactive"

[[record]]
compound = "CCN1CCCC1=O"
endpoint_result = "inactive"

[[record]]
compound = "CNCC[C@@H](Oc1ccccc1C)c1ccccc1"
endpoint_result = "inactive"

